# testMethodNotes: Viability qHTS for spleen associated tyrosine kinase inhibitor (SYKi) drug resistant MV4-11 cells (AID 1963824); note: nearly all actives have a fitted effect of over 35% in size
# recordedConditions: SYKi-resistant MV4-11 viability, CellTiter-Glo, 72 h; series mostly up to 45 µM
Results filed as inconclusive are left out. Calls of active or inactive are those of the source. Calls come from the whole dose curve; as a rule, active = well fitted cell-killing curve with a large enough effect; inconclusive = small, poorly fitted or top-dose-only effect, or effect the other way; inactive = no such curve, though single readings can be large or run the other way.
Classes used: 1 (active), 0 (inactive)

molecule: C=C(C)[C@@H]1[C@H]2OC(=O)[C@H]1[C@]1(O)C[C@H]3O[C@]34C(=O)O[C@H]2[C@]14C
assignedClass: 0
//
molecule: C[CH2][Hg][S]c1ccccc1C(=O)O
assignedClass: 0
//
molecule: NN=C(N)N
assignedClass: 0
//
molecule: COC1=C[C@@H]2[C@@H]3Cc4ccc(OC)c(O)c4[C@]2(CCN3C)CC1=O
assignedClass: 1
//
molecule: CC1=C2C(=O)C3[C@@H](CC=C4C[C@@H](O)CC[C@@]43C)[C@@H]2CC[C@]12O[C@@H]1C[C@H](C)CN[C@H]1[C@H]2C (stereo partly specified)
assignedClass: 0
//
molecule: COC[C@@H](NC(C)=O)C(=O)NCc1ccccc1
assignedClass: 0

----------
# testMethodNotes: Quantitative highthroughput screen to assess conditional lethalithy of P12 Ichikawa cells grown in RPMI1640 with untreated serum (RPMI+s) (AID 1963881); note: nearly all actives have a fitted effect of over 35% in size;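 for viability: 100% = DMSO wells and 0% = empty wells without cells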
# recordedConditions: ATP luminescence, 48 h; viability; series mostly up to 45.8 µM
# Protocol: Assay Provider: Jason Cantor Ph.D. Department of Biochemistry University of Wisconsin-Madison, Madison, WI, USA Chemical screening studies have identified drug sensitivities across hundreds of cancer cell lines but most putative therapeutics fail to translate. […] Sets of conditional anticancer compounds spanned phases of clinical development and included non-oncology drugs were assessed. […] 6; Detection; Luminescence, Viewlux PerkinElmer. […]
Records with an inconclusive call do not appear. Active and inactive are the calls of the source. Calls come from the whole dose curve; as a rule, active = well fitted cell-killing curve with a large enough effect; inconclusive = small, poorly fitted or top-dose-only effect; inactive = flat fitted curve, though single readings scatter.
Labels: 1 (active), 0 (inactive)

molecule: CCN(CC)C(=O)c1ccc(C2=CC3(CCNCC3)Oc3cccc(O)c32)cc1
assignedClass: 0
--
molecule: NC1=NC(=O)N2CC12 (stereo unspecified)
assignedClass: 1
--
molecule: NC1CC1c1ccccc1 (stereo unspecified)
assignedClass: 0
--
molecule: CC[C@@H](C(N)=O)N1CCCC1=O
assignedClass: 0
--
molecule: O=C1CC[C@@]2(O)[C@H]3Cc4ccc(O)c5c4[C@@]2(CCN3CC2CC2)[C@H]1O5
assignedClass: 0
--
molecule: COc1cc(OC)c(OC)cc1C=O
assignedClass: 0
--
molecule: COc1ccc(C(=O)c2c(C)n(CCN3CCOCC3)c3ccccc23)cc1
assignedClass: 0
--
molecule: CN(C)CCN(C)CCc1ccc(Cl)c(Cl)c1
assignedClass: 0
--
molecule: CSCC[C@@H](NC(=O)[C@@H](Cc1ccccc1)NC(=O)CNC(=O)CNC(=O)[C@@H](N)Cc1ccc(O)cc1)C(=O)O
assignedClass: 0
--
molecule: COc1cccc2c1[C@]13CCN(CC4CC4)[C@H](C2)[C@]1(OC)CCC(=O)C3
assignedClass: 0
--
molecule: COc1ccc2c(c[n+](C)c3c4cc5c(cc4ccc23)OCO5)c1OC
assignedClass: 1

----------
# testMethodNotes: Quantitative highthroughput screen to assess conditional lethalithy of SEM cells grown in RPMI1640 with unreated serum (RPMI+s) (AID 1963883); note: nearly all actives have a fitted effect of over 35% in size;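 for viability: 100% = DMSO wells and 0% = empty wells without cells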
# recordedConditions: SEM B-ALL cells, CellTiter-Glo viability, 48 h; series mostly up to 45.8 µM
Results filed as inconclusive are left out. Active and inactive are the calls of the source. Calls follow the shape of the dose curve; as a rule, active = well fitted cell-killing curve with a large enough effect; inconclusive = small, poorly fitted or top-dose-only effect, or effect the other way; inactive = no such curve, though single readings can be large or run the other way.
Labels: 1.0 (active), 0.0 (inactive)

molecule: O=P1(N(CCCl)CCCl)NCCCO1 (stereo unspecified)
assignedClass: 1.0

molecule: O=S(=O)(CC1CS1)c1ccc(Oc2ccccc2)cc1 (stereo unspecified)
assignedClass: 1.0

molecule: C[C@](O)(CS(=O)(=O)c1ccc(F)cc1)C(=O)Nc1ccc(C#N)c(C(F)(F)F)c1
assignedClass: 0.0

molecule: O=P1(NCCCl)OCCCN1CCCl (stereo unspecified)
assignedClass: 1.0

molecule: Cc1cc(SCc2sc(-c3ccc(C(F)(F)F)c(F)c3)nc2C)ccc1OCC(=O)O
assignedClass: 0.0

molecule: CNC(=O)c1ccc(N2C(=S)N(c3ccc(C#N)c(C(F)(F)F)c3)C(=O)C23CCC3)cc1F
assignedClass: 0.0

molecule: C[C@@H]1O[C@@H](O[C@@H]2C=C3CC[C@@H]4[C@@H](CC[C@]5(C)[C@H](c6ccc(=O)oc6)CC[C@@]45O)[C@@]3(C)CC2)[C@H](O)[C@H](O)[C@H]1O
assignedClass: 1.0

molecule: CCOC(=O)Nc1ccc(NCc2ccc(F)cc2)cc1N
assignedClass: 0.0

molecule: CC1=C(O)C(=O)C=C2C1=CC=C1[C@@]2(C)CC[C@@]2(C)[C@@H]3C[C@](C)(C(=O)O)CC[C@]3(C)CC[C@]12C
assignedClass: 1.0

molecule: CC(O)(CS(=O)(=O)c1ccc(F)cc1)C(=O)Nc1ccc(C#N)c(C(F)(F)F)c1 (stereo unspecified)
assignedClass: 1.0

molecule: Cc1c(N)nc([C@H](CC(N)=O)NC[C@@H](N)C(N)=O)nc1C(=O)N[C@H](C(=O)N[C@@H](C)[C@H](O)[C@@H](C)C(=O)N[C@@H](C(=O)NCCc1nc(-c2nc(C(=O)NCCC[S+](C)C)cs2)cs1)[C@@H](C)O)C(O[C@H]1O[C@H](CO)[C@H](O)[C@@H](O)[C@@H]1O[C@H]1O[C@H](CO)[C@@H](O)[C@H](OC(N)=O)[C@H]1O)c1cnc[nH]1 (stereo partly specified)
assignedClass: 1.0

molecule: C[C@]12CCC(=O)C(O)=C1CC[C@@H]1[C@H]3CCC(=O)[C@@]3(C)CC[C@@H]12
assignedClass: 0.0

molecule: O=[N+]([O-])c1ncc[nH]1
assignedClass: 0.0

molecule: C[C@]12CC[C@H]3[C@@H](CC[C@@]45O[C@H]4C(O)=C(C#N)C[C@]35C)[C@H]1CC[C@H]2O
assignedClass: 1.0

molecule: O=C1C=CC[C@@H]2[C@H]3CCCN4CCC[C@@H](CN12)[C@@H]34
assignedClass: 0.0

molecule: CNC(=O)N1N=C(c2ccc(N)cc2)c2cc3c(cc2CC1C)OCO3 (stereo unspecified)
assignedClass: 1.0

molecule: CN1C(=O)CCS(=O)(=O)C1c1ccc(Cl)cc1 (stereo unspecified)
assignedClass: 0.0

molecule: CC(=O)OCC1=C(C(=O)O)N2C(=O)[C@@H](N)[C@@H]2SC1
assignedClass: 0.0

molecule: CCCC[N+]1(C)[C@H]2CC(OC(=O)[C@H](CO)c3ccccc3)C[C@H]1[C@H]1O[C@H]12 (stereo partly specified)
assignedClass: 0.0

molecule: c1ccc2c(CN3CCNCC3)cccc2c1
assignedClass: 0.0

molecule: CN[C@@H]1Cc2cccc3[nH]c(=O)n(c23)C1
assignedClass: 0.0

molecule: C=C(C)[C@H]1Cc2c(ccc3c2O[C@@H]2COc4cc(OC)c(OC)cc4[C@@H]2C3=O)O1
assignedClass: 1.0

molecule: CC(N[C@H]1C[C@H]1c1ccccc1)c1ccc2c(c1)OCCO2 (stereo partly specified)
assignedClass: 0.0

molecule: CC(=Cc1csc(C)n1)[C@@H]1C[C@H]2O[C@@H]2CCC[C@H](C)[C@@H](O)[C@@H](C)C(=O)C(C)(C)[C@@H](O)CC(=O)O1
assignedClass: 0.0

molecule: C#CC1(O)CCC2C3CCC4=CC(=O)CCC4(C)C3CCC21C (stereo unspecified)
assignedClass: 0.0

molecule: C1=C2CCCN[C@H]2[C@@H]2C[C@H]1[C@@H]1CCCCN1C2
assignedClass: 0.0

molecule: C[C@H]([C@H](O)CCC(C)(C)O)[C@H]1CC[C@@]2(O)C3=CC(=O)[C@@H]4C[C@@H](O)[C@@H](O)C[C@]4(C)[C@@H]3CC[C@]12C
assignedClass: 0.0

molecule: C[C@]12Cc3cn[nH]c3C[C@@H]1CC[C@@H]1[C@H]2CC[C@@]2(C)[C@H]1CC[C@]2(C)O
assignedClass: 0.0

molecule: Cc1ccccc1-n1c(Cn2ncc3c(N)ncnc32)nc2cccc(C)c2c1=O
assignedClass: 0.0

molecule: C=C[C@@H]1CN2CCC1C[C@@H]2[C@@H](O)c1ccnc2ccccc12 (stereo partly specified)
assignedClass: 1.0

molecule: CC(C)(C)c1cc(C=C(C#N)C#N)cc(Br)c1O
assignedClass: 0.0

molecule: O=c1[nH]c2ccccc2n1CCCN1CCC(n2c(=O)[nH]c3cc(Cl)ccc32)CC1
assignedClass: 0.0

molecule: COc1ccc(CC2NCCc3cc(OC)c(OC)cc32)cc1OC (stereo unspecified)
assignedClass: 1.0

molecule: CN(C)CCN(C)CCc1ccc(Cl)c(Cl)c1
assignedClass: 0.0

molecule: COc1cc(C(=O)N2CC[C@@H](O)[C@@H](N)C2)cc2nc(-c3cc4ccccc4n3CC3CC3)n(C)c12
assignedClass: 1.0

molecule: Cc1nc(-c2ccc(-c3ccc(C(=O)N4CCc5cc6c(cc54)C4(CCN(C)CC4)CO6)cc3)c(C)c2)no1
assignedClass: 0.0

All figures here come from PubChem BioAssay (NCATS).
